Data provenance: patent US20250049791A1

Target: recombinant active full-length human MEK7 (Homo sapiens, UniProt O14733)
Construct: recombinant active full-length human MEK7 (Carna Biosciences); purchased Carna Biosciences
Sequence (O14733 1-419): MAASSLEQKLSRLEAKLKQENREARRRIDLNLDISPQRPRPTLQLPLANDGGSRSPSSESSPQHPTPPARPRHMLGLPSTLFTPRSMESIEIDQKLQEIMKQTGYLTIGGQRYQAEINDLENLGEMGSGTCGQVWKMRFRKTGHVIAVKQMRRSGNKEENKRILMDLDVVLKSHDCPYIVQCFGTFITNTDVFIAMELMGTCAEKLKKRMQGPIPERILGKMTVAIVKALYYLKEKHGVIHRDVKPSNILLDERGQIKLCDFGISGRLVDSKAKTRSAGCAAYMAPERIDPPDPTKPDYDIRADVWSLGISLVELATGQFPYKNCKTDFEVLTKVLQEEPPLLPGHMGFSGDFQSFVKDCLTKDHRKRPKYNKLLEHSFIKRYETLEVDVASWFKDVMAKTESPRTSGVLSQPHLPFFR
Test: ADP-Glo kinase activity assay, MEK7 with JNK1 substrate
Type: biochemical
Settings: 30 min preincubation; overall value of two experiments; read-out: MEK7 IC50
pIC50: −log10 of the molar value.
Classify as follows. Reported pIC50 greater than or equal to 6: 1. Reported pIC50 below: 0.

Q) Could you tell me if the measured pIC50 of C=CC(=O)Nc1ccc(Oc2cc(NC)ncn2)cc1 [Compound 7] reaches 6 or more?
A) 0

Q) Could you tell me if the measured pIC50 of CNc1cc(Oc2cccc(NC(=O)CF)c2)ncn1 [Compound 12] reaches 6 or more?
A) 0

Q) Could you tell me if the measured pIC50 of O=C(CCl)Nc1cccc(Oc2cc(NCCc3c[nH]c4ccccc34)ncn2)c1 [Compound 15] reaches 6 or more?
A) 1

Q) Could you tell me if the measured pIC50 of O=C(CCl)Nc1cccc(Oc2cc(NCCc3ccc(Cl)cc3)ncn2)c1 [Compound 19] reaches 6 or more?
A) 1

Q) Could you tell me if the measured pIC50 of COc1ccc(CNc2cc(Oc3cccc(NC(=O)CCl)c3)ncn2)cc1OC [Compound 35] reaches 6 or more?
A) 1

Q) Could you tell me if the measured pIC50 of O=C(CCl)Nc1cccc(Oc2cc(NCc3cc(F)cc(F)c3)ncn2)c1 [Compound 26] reaches 6 or more?
A) 1

Q) Could you tell me if the measured pIC50 of Cc1ccc(CNc2cc(Oc3cccc(NC(=O)CCl)c3)ncn2)cc1 [Compound 36] reaches 6 or more?
A) 1
